FYI, the data here is from paper PMC10716145.

tgt: T1, ZNF524 ZF1-4 R159A (human, UniProt Q96C55 110-223, R159A)
T1 sequence: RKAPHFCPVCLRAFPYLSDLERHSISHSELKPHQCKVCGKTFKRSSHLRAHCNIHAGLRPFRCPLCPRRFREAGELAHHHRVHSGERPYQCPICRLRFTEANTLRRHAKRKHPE
method: ITC; ITC: 20 mM Tris-HCl pH 7.5, 150 mM NaCl, 20 C; pull-down: 50 mM Tris-HCl pH 7.5, 150 mM NaCl, 0.5% IGEPAL, 5 mM MgCl2, 1 mM DTT, salmon sperm DNA, 4 C
condition-details: protein: recombinant; tags: none (GST removed by TEV); blunt
metric-name: Kd

Using the record for TTAGGG 12-bp duplex (dsDNA) DNA 1: GGTTAGGGTTAG DNA 2: CTAACCCTAACC , report its Kd.
100 nM
